Test system: HCT-116
Experiment: Antiproliferative activity against human HCT-116 assessed as reduction in cell viability measured after 48 hrs by MTT assay
Assay type: functional, cell-based
Settings: HCT-116, 48 h
readout: IC50 (nM)

Guide cases for IC50, answers given:
CCOc1cc(-c2ccc3c(ccn3C)c2)cn2c(-c3cc(OC)c(OC)c(OC)c3)nnc12 | 228
COc1cc(-c2nnc3c(OC4CCC4)cc(-c4ccc5[nH]ccc5c4)cn23)cc(OC)c1OC | 694
COc1cc(-c2nnc3c(OC(C)C)cc(-c4ccc5c(ccn5C)c4)cn23)cc(OC)c1OC | 402
CCOc1cc(-c2ccc3[nH]c4ccccc4c3c2)cn2c(-c3cc(OC)c(OC)c(OC)c3)nnc12 | 2420
CCOc1cc(-c2ccc3[nH]ccc3c2)cn2c(-c3cc(OC)c(OC)c(OC)c3)nnc12 | 374
COc1cc(-c2nnc3c(OC4COC4)cc(-c4ccc5[nH]ccc5c4)cn23)cc(OC)c1OC | 5370
CCCN1CC(Oc2cc(-c3ccc4c(ccn4C)c3)cn3c(-c4cc(OC)c(OC)c(OC)c4)nnc23)C1 | 675
C=C(c1cc(OC)c(OC)c(OC)c1)c1ccc2c(c1)c1ccccc1n2C | 1540
COc1ccc(/C=C/C=C\c2cc(OC)c(OC)c(OC)c2)cc1O | 42.3

A = COc1cc(-c2nnc3c(OC)cc(-c4ccc5c(c4)c(C=O)cn5C)cn23)cc(OC)c1OC
B = COc1cc(-c2nnc3c(OCC(F)(F)F)cc(-c4ccc5c(ccn5C)c4)cn23)cc(OC)c1OC
C = COc1cc(-c2nnc3c(OCC(F)(F)F)cc(-c4ccc5[nH]ccc5c4)cn23)cc(OC)c1OC
D = CCOc1cc(-c2ccc3ccn(C)c3c2)cn2c(-c3cc(OC)c(OC)c(OC)c3)nnc12
E = CC(=O)O[C@H]1C(=O)[C@@]2(C)[C@H]([C@H](OC(=O)c3ccccc3)[C@]3(O)C[C@H](OC(=O)[C@H](O)[C@@H](NC(=O)c4ccccc4)c4ccccc4)C(C)=C1C3(C)C)[C@]1(OC(C)=O)CO[C@@H]1C[C@@H]2O
Data request: Arrange the 5 compounds from largest to smallest IC50. In your reply, arrange the labels in the requested order.
Data returned: A, C, B, D, E

----------
Assay: Metabolic stability in human liver microsomes assessed as parent compound remaining after 60 mins
Format: ADME, Microsome
Conditions: read-out: Stability
readout: remaining at 1 h (%)
# value in %; strip the unit string

Worked cases, answers included:
COc1ccc(/C=C\c2cc(OC)c(OC)c(OC)c2)cc1O | 26.1
COc1ccc(/C=C/C=C\c2cc(OC)c(OC)c(OC)c2)cc1O | 12.5

Form: compound = COc1cc(-c2nnc3c(OC)cc(-c4ccc5c(ccn5C)c4)cn23)cc(OC)c1OC ; remaining at 1 h = 37.5

----------
Test system: HeLa
Experiment: Antiproliferative activity against human HeLa assessed as reduction in cell viability measured after 48 hrs by MTT assay
Format: functional, cell-based
readout: IC50 (nM)

Sample records with IC50:
CCOc1cc(-c2ccc3ccn(C)c3c2)cn2c(-c3cc(OC)c(OC)c(OC)c3)nnc12 | 240
COc1cc(-c2nnc3c(OCC(F)(F)F)cc(-c4ccc5[nH]ccc5c4)cn23)cc(OC)c1OC | 348
COc1cc(-c2nnc3c(OC(C)C)cc(-c4ccc5c(ccn5C)c4)cn23)cc(OC)c1OC | 503
CCOc1cc(-c2ccc3c(c2)c2ccccc2n3C)cn2c(-c3cc(OC)c(OC)c(OC)c3)nnc12 | 350
COc1cc(-c2nnc3c(OC4COC4)cc(-c4ccc5c(ccn5C)c4)cn23)cc(OC)c1OC | 214

P = COc1cc(-c2nnc3c(OCC(F)(F)F)cc(-c4ccc5c(ccn5C)c4)cn23)cc(OC)c1OC
Q = COc1cc(-c2nnc3c(OC4CC4)cc(-c4ccc5c(ccn5C)c4)cn23)cc(OC)c1OC
R = CC(=O)O[C@H]1C(=O)[C@@]2(C)[C@H]([C@H](OC(=O)c3ccccc3)[C@]3(O)C[C@H](OC(=O)[C@H](O)[C@@H](NC(=O)c4ccccc4)c4ccccc4)C(C)=C1C3(C)C)[C@]1(OC(C)=O)CO[C@@H]1C[C@@H]2O [PACLITAXEL]
S = COc1cc(-c2nnc3c(OC)cc(-c4ccc5c(c4)c(C=O)cn5C)cn23)cc(OC)c1OC
Data request: # rank_down: sort by IC50, max first Give the labels in the order specified.
Data returned: S, P, Q, R
(S: 820 nM, P: 199 nM, Q: 97 nM, R: 8 nM)

1 = CCOc1cc(-c2ccc3cc[nH]c3c2)cn2c(-c3cc(OC)c(OC)c(OC)c3)nnc12
2 = COc1cc(-c2nnc3c(OC4CCC4)cc(-c4ccc5c(ccn5C)c4)cn23)cc(OC)c1OC
3 = COc1cc(-c2nnc3c(OC)cc(-c4ccc5[nH]ccc5c4)cn23)cc(OC)c1OC
4 = COc1cc(-c2nnc3c(OC4COC4)cc(-c4ccc5[nH]ccc5c4)cn23)cc(OC)c1OC
Data request: hey, can you rank those molecules up there by IC50? biggest number first please Give the labels in the order requested.
Data returned: 4, 1, 2, 3

1 = COc1cc(-c2nnc3c(OC4CCC4)cc(-c4ccc5[nH]ccc5c4)cn23)cc(OC)c1OC
2 = CCOc1cc(-c2ccc3c(ccn3C)c2)cn2c(-c3cc(OC)c(OC)c(OC)c3)nnc12
3 = C=C(c1cc(OC)c(OC)c(OC)c1)c1ccc2c(c1)c1ccccc1n2C
4 = COc1cc(-c2nnc3c(OC)cc(-c4ccc5c(ccn5C)c4)cn23)cc(OC)c1OC
Data request: Order the records, beginning with the lowest IC50 and ending with the highest. Answer by naming the labels in the order asked.
Data returned: 4, 1, 2, 3

----------
Test: Metabolic stability in human liver microsomes assessed as half life
Type: ADME, Microsome
Known half-life of a selection of compounds
API: value field is a number in min; no unit string.

COc1cc(-c2nnc3c(OC)cc(-c4ccc5c(ccn5C)c4)cn23)cc(OC)c1OC | 51.7
COc1ccc(/C=C/C=C\c2cc(OC)c(OC)c(OC)c2)cc1O | 26.7

Proceeding to the next compound to report its half-life.
// half-life value for COc1ccc(/C=C\c2cc(OC)c(OC)c(OC)c2)cc1O [COMBRETASTATIN A4] : 32.5

----------
Below, each entry is listed alongside its reported IC50.
System: HCT-116
Test: Antiproliferative activity against human HCT-116 assessed as reduction in cell viability measured after 48 hrs by MTT assay
Assay type: functional, cell-based
Details: HCT-116, 48 h

Example results:
COc1cc(-c2nnc3c(OC)cc(-c4ccc5[nH]cc(C=O)c5c4)cn23)cc(OC)c1OC | > 10 µM
COc1cc(-c2cc(OC)c3nnc(-c4ccc5c(ccn5C)c4)n3c2)cc(OC)c1OC | > 10 µM

Turning now to a further record.
Per the records, this molecule ( COc1cc(-c2cc(OC)c3nnc(-c4ccc5[nH]ccc5c4)n3c2)cc(OC)c1OC ) has IC50 equal to > 10 µM

----------
Test system: HeLa
Test: Antiproliferative activity against human HeLa assessed as reduction in cell viability measured after 48 hrs by MTT assay
Assay type: functional, cell-based
readout: IC50 (nM)

The cases that follow already have their IC50 on record.
CCOc1cc(-c2ccc3[nH]c4ccccc4c3c2)cn2c(-c3cc(OC)c(OC)c(OC)c3)nnc12 | 472
COc1cc(-c2nnc3c(OC(C)C)cc(-c4ccc5[nH]ccc5c4)cn23)cc(OC)c1OC | 261
CCOc1cc(-c2ccc3[nH]ccc3c2)cn2c(-c3cc(OC)c(OC)c(OC)c3)nnc12 | 166

a = COc1cc(-c2nnc3c(OC4CC4)cc(-c4ccc5[nH]ccc5c4)cn23)cc(OC)c1OC
b = CCCN1CC(Oc2cc(-c3ccc4c(ccn4C)c3)cn3c(-c4cc(OC)c(OC)c(OC)c4)nnc23)C1
Data request: Exercise: compare a and b ; which one has the greater IC50? Your choice should be expressed through its label.
Data returned: b

----------
// values below are reported IC50
Tested on: HeLa
Experiment: Antiproliferative activity against human HeLa assessed as reduction in cell viability measured after 48 hrs by MTT assay
Format: functional, cell-based

Solved cases (5 shown):
COc1cc(-c2cc(OC)c3nnc(-c4ccc5[nH]ccc5c4)n3c2)cc(OC)c1OC | > 10 µM
COc1cc(-c2nnc3c(OC)cc(-c4ccc5[nH]cc(C=O)c5c4)cn23)cc(OC)c1OC | > 10 µM
COc1cc(-c2nnc3c(OC4CN(C(C)(C)C)C4)cc(-c4ccc5[nH]ccc5c4)cn23)cc(OC)c1OC | > 10 µM
COc1cc(-c2cc(OC)c3nnc(-c4ccc5c(ccn5C)c4)n3c2)cc(OC)c1OC | > 10 µM
COc1ccc(/C=C/C=C\c2cc(OC)c(OC)c(OC)c2)cc1O | 0.062 µM

Next compound, IC50 to be filled in.
Field IC50 (system: HeLa) for entry COc1cc2c(c(OC)c1OC)-c1ccc(OC)c(=O)cc1[C@@H](NC(C)=O)CC2 = 0.103 µM
